Molecular target: EGFR L858R/T790M (Homo sapiens, UniProt P00533, L858R/T790M)
Construct: purchased Carna Bio
Sequence (P00533 25-1210 T790M/L858R): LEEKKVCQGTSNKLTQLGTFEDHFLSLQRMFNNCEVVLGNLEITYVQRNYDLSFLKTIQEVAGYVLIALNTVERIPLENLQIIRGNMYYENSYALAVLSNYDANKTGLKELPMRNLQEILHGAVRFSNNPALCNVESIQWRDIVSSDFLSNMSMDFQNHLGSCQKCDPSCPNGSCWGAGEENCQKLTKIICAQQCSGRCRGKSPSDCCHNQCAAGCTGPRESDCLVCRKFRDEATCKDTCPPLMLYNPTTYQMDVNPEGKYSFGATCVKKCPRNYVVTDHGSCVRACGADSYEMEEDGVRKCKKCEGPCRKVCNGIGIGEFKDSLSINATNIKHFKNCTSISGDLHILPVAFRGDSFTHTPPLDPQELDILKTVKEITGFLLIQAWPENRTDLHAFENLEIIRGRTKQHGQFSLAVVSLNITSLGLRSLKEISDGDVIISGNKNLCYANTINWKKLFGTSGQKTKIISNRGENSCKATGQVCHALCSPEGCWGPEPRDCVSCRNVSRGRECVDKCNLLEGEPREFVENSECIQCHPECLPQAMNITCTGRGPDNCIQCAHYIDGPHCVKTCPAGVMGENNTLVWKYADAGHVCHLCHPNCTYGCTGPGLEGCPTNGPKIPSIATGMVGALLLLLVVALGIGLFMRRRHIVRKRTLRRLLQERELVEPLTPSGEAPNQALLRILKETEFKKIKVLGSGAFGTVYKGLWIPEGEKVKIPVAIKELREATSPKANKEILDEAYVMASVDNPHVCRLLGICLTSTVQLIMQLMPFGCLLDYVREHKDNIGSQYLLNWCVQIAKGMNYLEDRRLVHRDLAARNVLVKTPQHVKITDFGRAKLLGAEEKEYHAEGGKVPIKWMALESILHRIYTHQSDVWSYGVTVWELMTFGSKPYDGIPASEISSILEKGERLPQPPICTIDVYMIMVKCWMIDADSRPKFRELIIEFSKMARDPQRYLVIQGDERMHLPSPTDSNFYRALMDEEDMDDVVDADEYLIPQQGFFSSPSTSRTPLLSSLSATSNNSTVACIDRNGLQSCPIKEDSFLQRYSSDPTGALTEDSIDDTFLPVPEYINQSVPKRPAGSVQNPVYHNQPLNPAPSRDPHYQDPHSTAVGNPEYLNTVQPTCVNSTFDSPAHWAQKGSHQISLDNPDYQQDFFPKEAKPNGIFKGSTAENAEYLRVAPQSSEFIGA
Assay: Inhibition of EGFR L858R/T790M biochemical enzymatic activity (HTRF)
Settings: EGFR L858R-T790M, 1 mM ATP, 1 h, room temperature, read-out: IC50 (nM) @L858R-T790M
measured endpoint: IC50

>>> df
                                   compound   measured
0  C[C@@H]1CCCOc2c(cnn2C)-c2cc(cn(C)c2=O)C(=O)Nc2nc3ccc(N4CCNCC4)c(Cl)c3n2C1      12 nM
1  CCn1ncc2c1OCCC[C@@H](C)Cn1c(nc3ccc(N4CCN(C)CC4)cc31)NC(=O)c1cc-2c(=O)n(C)c1      18 nM
2  CCn1cc2cc(c1=O)-c1cnn(C)c1OCCC[C@@H](C)Cn1c(nc3ccc(N4CCN(C)CC4)cc31)NC2=O  > 5000 nM
3  COCCN(C)c1ccc2nc3n(c2c1)C12CCC(CN(CCOc4c(cnn4C)-c4cc(cn(C)c4=O)C(=O)N3)C1)C2 (single isomer, unassigned) [Example A90A]  > 5000 nM
4  CN1CCN(c2ccc3c(c2)nc2n3C34CCC(CN(CCOc5c(cnn5C)-c5cc(cn(C)c5=O)C(=O)N2)C3)C4)CC1 (stereo not drawn) [Example A60]     240 nM
5  Cc1cc2cc(n1)-c1cnn(C)c1OCCN1CC3CCC(CC3)(C1)n1c(nc3ccc(N4CCOCC4)cc31)NC2=O      25 nM

====

Biological target: EGFR (C797S L858R) (Homo sapiens, UniProt P00533, C797S/L858R)
Construct: purchased signalchem
Sequence (P00533 25-1210 C797S/L858R): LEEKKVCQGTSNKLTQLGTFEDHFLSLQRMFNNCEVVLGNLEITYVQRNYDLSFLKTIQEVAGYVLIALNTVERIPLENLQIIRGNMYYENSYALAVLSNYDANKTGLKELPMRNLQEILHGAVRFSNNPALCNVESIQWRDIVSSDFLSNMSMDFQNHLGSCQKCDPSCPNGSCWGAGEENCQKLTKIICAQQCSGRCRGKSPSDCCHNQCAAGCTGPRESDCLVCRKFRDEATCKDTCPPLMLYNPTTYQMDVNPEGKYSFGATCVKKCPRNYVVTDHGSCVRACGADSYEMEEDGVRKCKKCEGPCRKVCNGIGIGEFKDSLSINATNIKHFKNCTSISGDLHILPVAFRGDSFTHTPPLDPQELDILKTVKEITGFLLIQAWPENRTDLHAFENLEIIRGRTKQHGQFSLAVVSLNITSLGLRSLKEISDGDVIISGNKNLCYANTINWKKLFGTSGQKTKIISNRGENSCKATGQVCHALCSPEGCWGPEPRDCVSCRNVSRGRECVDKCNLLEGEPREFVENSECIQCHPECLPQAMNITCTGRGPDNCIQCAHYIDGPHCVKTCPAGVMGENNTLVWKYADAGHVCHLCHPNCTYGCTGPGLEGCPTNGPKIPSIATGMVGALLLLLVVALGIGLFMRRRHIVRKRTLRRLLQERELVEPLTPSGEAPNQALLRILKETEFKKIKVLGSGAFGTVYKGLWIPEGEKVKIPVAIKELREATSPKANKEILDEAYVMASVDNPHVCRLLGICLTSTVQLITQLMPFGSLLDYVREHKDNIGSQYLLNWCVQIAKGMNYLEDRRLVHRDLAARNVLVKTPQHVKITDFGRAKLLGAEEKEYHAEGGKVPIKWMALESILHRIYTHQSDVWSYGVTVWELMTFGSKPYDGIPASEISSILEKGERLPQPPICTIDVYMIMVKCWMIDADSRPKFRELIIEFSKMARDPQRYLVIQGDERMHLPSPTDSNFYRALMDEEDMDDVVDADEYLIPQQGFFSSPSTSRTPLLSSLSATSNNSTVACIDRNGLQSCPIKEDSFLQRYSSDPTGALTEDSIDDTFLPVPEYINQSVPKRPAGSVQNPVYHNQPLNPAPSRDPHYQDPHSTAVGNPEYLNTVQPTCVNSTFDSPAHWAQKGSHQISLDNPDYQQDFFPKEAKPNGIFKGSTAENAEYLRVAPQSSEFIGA
Experiment: Inhibition of EGFR (C797S L858R) biochemical enzymatic activity (HTRF)
Conditions: EGFR L858-C797S, 1 mM ATP, 1 h, room temperature, read-out: IC50 (nM) @L858-C797S
measured endpoint: IC50

molecule	measured
CN1CCCC12CN(c1ccc3nc4n(c3c1)C13CCC(CN(CCOc5c(cnn5C)-c5cc(cn(C)c5=O)C(=O)N4)C1)C3)C2 (single isomer, unassigned) [Example A76A]	4300 nM
CN1CCC2(CN(c3ccc4nc5n(c4c3)C34CCC(CN(CCOc6c(cnn6C)-c6cc(cn(C)c6=O)C(=O)N5)C3)C4)C2)C(F)(F)C1 (single isomer, unassigned) [Example A91A]	> 5000 nM
Cn1ncc2c1OCCN1CC3(CCCC1C3)n1c(nc3ccc(N4CCOCC4)cc31)NC(=O)c1cc-2c(=O)n(C)c1 (centres unmarked) [Example A9]	> 5000 nM
Cn1ncc2c1OCCN1CC3CCC(C3)(C1)n1c(nc3ccc(N4CCC(N5CC(F)C5)CC4)cc31)NC(=O)c1cc-2c(=O)n(C)c1 (single isomer, unassigned) [Example A87A]	> 5000 nM
CN(C)CC1(F)CN(c2ccc3nc4n(c3c2)C23CCC(CN(CCOc5c(cnn5C)-c5cc(cn(C)c5=O)C(=O)N4)C2)C3)C1 (single isomer, unassigned) [Example A72B]	2 nM

====

System: Ba/F3 cells expressing EGFR mutations
Assay: Cell proliferation assay, Ba/F3 cells expressing EGFR mutations (CellTiter-Glo, 72 hours)
Assay type: cell-based
Settings: Mus musculus, BaF3, 72 h, EGFR DEL19-T790M, CellTiter-Glo, read-out: DEL19-T790M GI50
Experimental: Biological Example 2: Cell Proliferation Assays Ba/F3 cells expressing EGFR mutations were seeded in 384-well plates at 5000 cells/well in RPMI1640 medium containing 1000 FBS. […] The assay plates were further incubated for 72 hours and the number of viable cells (G3) was measured. The percentage of proliferation was calculated as: […]=100×(G3 value of sample well−G0 value)/(G3 value of DMSO control−G0 value). […]
Each entry below carries its recorded GI50.
measured endpoint: GI50 (nM)

>>> df
                                   compound                      target_under_test  measured_endpoint  measured
0  C[C@@H]1CCCOc2c(cnn2C)-c2cc(cn(C)c2=O)C(=O)Nc2nc3ccc(N4CC(N(C)C)C4)cc3n2C1  Ba/F3 cells expressing EGFR mutations               GI50       5.5
1  C[C@@H]1CCCOc2c(cnn2C)-c2cc(cn(C)c2=O)C(=O)Nc2nc3ccc(N4CCN(C5CC5)CC4)cc3n2C1  Ba/F3 cells expressing EGFR mutations               GI50        53
2  Cn1ncc2c1OCCN1CC(CCC1(C)C)n1c(nc3ccc(N4CCOCC4)cc31)NC(=O)c1cc-2c(=O)n(C)c1 (stereo not shown)  Ba/F3 cells expressing EGFR mutations               GI50       197
3  C[C@@H]1CCCOc2c(cnn2C)-c2cc(cn(C)c2=O)C(=O)Nc2nc3ccc(N4CCC5(CC4)CCN5C)cc3n2C1  Ba/F3 cells expressing EGFR mutations               GI50       9.6
